- target_desc: fusion protein PRK
- Sequence (chain, as listed by the source): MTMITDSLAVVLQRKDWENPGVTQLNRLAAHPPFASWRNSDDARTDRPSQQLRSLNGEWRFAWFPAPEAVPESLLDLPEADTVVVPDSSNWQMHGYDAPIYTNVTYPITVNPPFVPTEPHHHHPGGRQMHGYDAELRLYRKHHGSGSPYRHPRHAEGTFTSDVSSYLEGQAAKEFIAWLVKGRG
measured_attribute: relative cleavage efficiency

OmpT protease variant OmpT D97S (protein) STETLSFTPDNINADISLGTLSGKTKERVYLAEEGGRKVSQLDWKFNNAAIIKGAINWDLMPQISIGAAGWTTLGSRGGNMVDQDWMDSSNPGTWTSESRHPDTQLNYANEFDLNIKGWLLNEPNYRLGLMAGYQESRYSFTARGGSYIYSSEEGFRDDIGSFPNGERAIGYKQRFKMPYIGLTGSYRYEDFELGGTFKYSGWVESSDNDEHYDPGKRITYRSKVKDQNYYSVAVNAGYYVTPNAKVYVEGAWNRVTNKKGNTSLYDHNNNTSDYSKNGAGIENYNFITTAGLKYTF | < 3%
OmpT protease variant OmpT D97K (protein) STETLSFTPDNINADISLGTLSGKTKERVYLAEEGGRKVSQLDWKFNNAAIIKGAINWDLMPQISIGAAGWTTLGSRGGNMVDQDWMDSSNPGTWTKESRHPDTQLNYANEFDLNIKGWLLNEPNYRLGLMAGYQESRYSFTARGGSYIYSSEEGFRDDIGSFPNGERAIGYKQRFKMPYIGLTGSYRYEDFELGGTFKYSGWVESSDNDEHYDPGKRITYRSKVKDQNYYSVAVNAGYYVTPNAKVYVEGAWNRVTNKKGNTSLYDHNNNTSDYSKNGAGIENYNFITTAGLKYTF | less than 3.0%
OmpT protease variant OmpT D97C (protein) STETLSFTPDNINADISLGTLSGKTKERVYLAEEGGRKVSQLDWKFNNAAIIKGAINWDLMPQISIGAAGWTTLGSRGGNMVDQDWMDSSNPGTWTCESRHPDTQLNYANEFDLNIKGWLLNEPNYRLGLMAGYQESRYSFTARGGSYIYSSEEGFRDDIGSFPNGERAIGYKQRFKMPYIGLTGSYRYEDFELGGTFKYSGWVESSDNDEHYDPGKRITYRSKVKDQNYYSVAVNAGYYVTPNAKVYVEGAWNRVTNKKGNTSLYDHNNNTSDYSKNGAGIENYNFITTAGLKYTF | 3.9%
OmpT protease variant OmpT D97V (protein) STETLSFTPDNINADISLGTLSGKTKERVYLAEEGGRKVSQLDWKFNNAAIIKGAINWDLMPQISIGAAGWTTLGSRGGNMVDQDWMDSSNPGTWTVESRHPDTQLNYANEFDLNIKGWLLNEPNYRLGLMAGYQESRYSFTARGGSYIYSSEEGFRDDIGSFPNGERAIGYKQRFKMPYIGLTGSYRYEDFELGGTFKYSGWVESSDNDEHYDPGKRITYRSKVKDQNYYSVAVNAGYYVTPNAKVYVEGAWNRVTNKKGNTSLYDHNNNTSDYSKNGAGIENYNFITTAGLKYTF | less than 3.0%
